- Test system: HCT-15 colon
- Assay Protocol: NCI-60 one-dose screen, 48 h
- Details: 10 µM unless noted
About 83,000 compounds went through this panel and 20% of them were active in at least one assay; those are over-represented in the sample as a whole. The source made the active and inactive calls. The calls were made as follows: active = growth percent below 10; inactive = the rest.
Classes used: Yes = active, No = inactive

1) O=C(/C=C/C12c3ccccc3C(c3ccccc31)C1C(=O)NC(=O)C12)c1ccc(Cl)cc1 (stereo not given) :: Yes
2) C=C1c2c(C)nn(-c3ccc(S(N)(=O)=O)cc3)c2N(C)C23CC1C1(C)c4c(C)nn(-c5ccc(S(N)(=O)=O)cc5)c4N(C)C(C)(CC12)C3 (stereo not given) :: No
3) CS(=O)(=O)c1ccc(-c2nc3cc(Cl)ccc3n2CC(=O)N/N=C/c2ccc(Cl)cc2)cc1 :: No
4) O=c1[nH]c(=O)n(C2CC(O)C(CO)O2)cc1CO (stereo not given) :: No
5) CCOC(=O)C1C(=O)C=C(c2cnccn2)CC1c1ccc(OC)c(OC)c1 (stereo not given) :: No
